# credit: paper PMC4910235

Target: ERβ (Homo sapiens, UniProt Q92731)
Sequence (Q92731 whole entry): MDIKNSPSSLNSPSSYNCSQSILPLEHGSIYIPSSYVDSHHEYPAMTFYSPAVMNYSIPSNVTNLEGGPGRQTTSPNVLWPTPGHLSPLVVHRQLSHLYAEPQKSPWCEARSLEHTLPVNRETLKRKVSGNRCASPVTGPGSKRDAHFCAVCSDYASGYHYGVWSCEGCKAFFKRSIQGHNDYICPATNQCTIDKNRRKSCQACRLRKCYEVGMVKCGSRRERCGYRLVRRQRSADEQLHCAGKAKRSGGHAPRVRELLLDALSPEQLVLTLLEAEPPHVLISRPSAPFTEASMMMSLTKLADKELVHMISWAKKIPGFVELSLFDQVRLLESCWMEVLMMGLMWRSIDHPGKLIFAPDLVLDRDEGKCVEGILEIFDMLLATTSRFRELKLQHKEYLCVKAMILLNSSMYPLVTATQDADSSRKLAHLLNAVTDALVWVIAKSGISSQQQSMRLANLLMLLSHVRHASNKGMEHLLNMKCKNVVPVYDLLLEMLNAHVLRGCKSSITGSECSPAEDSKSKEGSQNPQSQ
Assay: 3×ERE-luciferase reporter gene assay in HEK 293 T cells, ERβ
Details: doses up to 10^-5 M, read-out: Agonist mode ERβ EC50
test readout: EC50

molecular string	experimental target	result
Oc1ccc(-c2ccc(-c3ccc(O)cc3Cl)[se]2)c(Cl)c1	ERβ (Homo sapiens, UniProt Q92731)	> 10 µM

----------
Molecular target: ERα (Homo sapiens)
Sequence (P03372 whole entry): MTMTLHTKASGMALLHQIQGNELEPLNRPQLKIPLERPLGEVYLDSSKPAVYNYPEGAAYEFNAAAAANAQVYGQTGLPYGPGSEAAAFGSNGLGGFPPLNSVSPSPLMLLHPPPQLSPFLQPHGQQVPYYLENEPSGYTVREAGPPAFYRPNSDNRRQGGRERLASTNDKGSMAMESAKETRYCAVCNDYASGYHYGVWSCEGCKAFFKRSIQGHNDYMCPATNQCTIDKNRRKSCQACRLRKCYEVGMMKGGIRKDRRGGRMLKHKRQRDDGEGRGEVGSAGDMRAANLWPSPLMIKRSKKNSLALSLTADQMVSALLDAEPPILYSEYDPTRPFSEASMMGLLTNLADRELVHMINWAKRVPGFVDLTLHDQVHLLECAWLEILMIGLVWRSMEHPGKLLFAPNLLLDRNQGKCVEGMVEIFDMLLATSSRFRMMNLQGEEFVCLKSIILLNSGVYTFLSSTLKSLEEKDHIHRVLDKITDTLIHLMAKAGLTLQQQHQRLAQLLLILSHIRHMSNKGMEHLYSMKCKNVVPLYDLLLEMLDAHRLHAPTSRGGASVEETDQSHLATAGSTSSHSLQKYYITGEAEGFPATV
Assay: 3×ERE-luciferase reporter gene assay in HEK 293 T cells, ERα
Details: doses up to 10^-5 M, read-out: Agonist mode ERα EC50
pEC50: −log10 of the molar value.

molecular string	pEC50
Oc1ccc(-c2ccc(-c3ccc(O)cc3Cl)[se]2)c(Cl)c1	< 5.00
